Exercise: state measured Percent Effect for each of the compounds provided.
Tested on: Wolbachia pipientis
assayComment: Anti-Wolbachia Cell-Based Screen
Assay type: functional
Set-up: scale not given: in the data most compounds retested in dose-response had high values
measurementContext: 5 µM
The campaign covered roughly 48,000 compounds. About 13,000 (27%) showed an effect of 50% or more. This is one part of the list.
One number for each entry, in %.

Below: 3 compounds and their reported Percent Effect.
{"columns": ["compound", "assayTarget", "measurementUnit", "measurement"],
 "data": [
  ["COCCN(C)C(C)c1cccc(S(N)(=O)=O)c1 (configuration not stated)", "Wolbachia pipientis", "%", 128.5],
  ["CN(Cc1n[nH]c2c1CCCC2)C(=O)c1cccc(CCC(C)(C)O)c1", "Wolbachia pipientis", "%", -30.85],
  ["CC(c1cccc(O)c1)N(C)S(=O)(=O)c1cccnc1 (configuration not stated)", "Wolbachia pipientis", "%", -4.431]
]}

Give one value of Percent Effect per listed compound.
1. CC(c1ccc(F)c(F)c1)N(C)CCS(=O)(=O)CCC(N)=O (configuration not stated)
2. CC(c1cccc(O)c1)N(C)S(N)(=O)=O (configuration not stated)
3. Cn1cccc1-c1cc(C(=O)N2CCCC2C(F)(F)F)[nH]n1 (configuration not stated)
4. CC(C)Nc1ncnc2c1CCNCC2
5. CN(Cc1n[nH]c2c1CCC2)C(=O)c1cc(-c2cccn2C)n[nH]1

Resp:
1. 2.944
2. 16.66
3. 19.39
4. -5.966
5. 101.4
